# SYSTEM UNDER TEST: human soluble epoxide hydrolase (hsEH CTD) (Homo sapiens)
# Construct: C-terminal domain, T230-M555
# ASSAY COMMENT: X-ray crystal structure ([…] Å, non-covalent complex), STD-NMR; ESI-MS and LC-MS/MS of covalent adducts; Ki from PHOME fluorescence assay
MEASUREMENT LABEL: Ki (µM)

>>> readout_number("CCCCC/C=C/C=C1/C(=O)C=C[C@@H]1C/C=C/CCCC(=O)O [15d-PGJ2]")
13

* * *

# SYSTEM UNDER TEST: human soluble epoxide hydrolase (hsEH CTD) (Homo sapiens, UniProt P34913, C423S/C522S)
# Construct: gene EPHX2; C-terminal domain, T230-M555
# Sequence (P34913 230-555 C423S/C522S): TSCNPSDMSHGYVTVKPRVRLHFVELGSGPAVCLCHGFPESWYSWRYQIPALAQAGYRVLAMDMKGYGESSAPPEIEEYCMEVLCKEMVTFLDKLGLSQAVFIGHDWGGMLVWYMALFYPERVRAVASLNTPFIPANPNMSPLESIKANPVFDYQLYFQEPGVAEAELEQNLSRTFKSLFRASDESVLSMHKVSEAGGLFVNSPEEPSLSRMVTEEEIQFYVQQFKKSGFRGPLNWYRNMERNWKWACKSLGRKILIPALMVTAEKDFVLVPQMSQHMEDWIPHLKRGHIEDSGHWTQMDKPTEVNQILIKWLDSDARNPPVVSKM
# ASSAY COMMENT: PHOME spectrofluorimetric assay, Ki by Cheng-Prusoff
# Type: biochemical
MEASUREMENT LABEL: Ki (µM)

>>> readout_number("CCCCC/C=C/C=C1/C(=O)C=C[C@@H]1C/C=C/CCCC(=O)O [15d-PGJ2]")
8.56

Where do the numbers come from? From paper PMC6525171.
